Ref: the supplement of paper PMC10567573

B1: CLCN6 (parent)
chain: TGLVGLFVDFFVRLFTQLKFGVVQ

- Variants of: B1
- MEASUREMENT_NOTES: protein stability index of a GFP-peptide fusion (GPS, HEK-293T) (PSI 1-6); higher = more stable;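 also: lentivirally expressed fusions sorted by FACS into six bins by GFP to DsRed ratio, PSI derived from sequencing read proportions per bin multiplied by bin number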
- RUN_PARAMETERS: c terminus: a fixed tail appended
ASSAY_METRIC: protein stability index

Example results:
G21I | 2.94
F20A | 3.03
F20L | 2.96
T16S | 2.91
R13F | 2.96
F15G | 2.95

Shift focus to the following entry.
q: Respond only with protein stability index recorded for V23L
a: 2.92
